The values you see were collected from patent US12162858B2.

A collection of compounds and their measured IC50
biological target: CSF1R (Homo sapiens); assay: Cellular CSF1R inhibition ELISA (p-CSF1R, M-CSF-induced) using THP-1 cells
Sequence (P07333 20-972): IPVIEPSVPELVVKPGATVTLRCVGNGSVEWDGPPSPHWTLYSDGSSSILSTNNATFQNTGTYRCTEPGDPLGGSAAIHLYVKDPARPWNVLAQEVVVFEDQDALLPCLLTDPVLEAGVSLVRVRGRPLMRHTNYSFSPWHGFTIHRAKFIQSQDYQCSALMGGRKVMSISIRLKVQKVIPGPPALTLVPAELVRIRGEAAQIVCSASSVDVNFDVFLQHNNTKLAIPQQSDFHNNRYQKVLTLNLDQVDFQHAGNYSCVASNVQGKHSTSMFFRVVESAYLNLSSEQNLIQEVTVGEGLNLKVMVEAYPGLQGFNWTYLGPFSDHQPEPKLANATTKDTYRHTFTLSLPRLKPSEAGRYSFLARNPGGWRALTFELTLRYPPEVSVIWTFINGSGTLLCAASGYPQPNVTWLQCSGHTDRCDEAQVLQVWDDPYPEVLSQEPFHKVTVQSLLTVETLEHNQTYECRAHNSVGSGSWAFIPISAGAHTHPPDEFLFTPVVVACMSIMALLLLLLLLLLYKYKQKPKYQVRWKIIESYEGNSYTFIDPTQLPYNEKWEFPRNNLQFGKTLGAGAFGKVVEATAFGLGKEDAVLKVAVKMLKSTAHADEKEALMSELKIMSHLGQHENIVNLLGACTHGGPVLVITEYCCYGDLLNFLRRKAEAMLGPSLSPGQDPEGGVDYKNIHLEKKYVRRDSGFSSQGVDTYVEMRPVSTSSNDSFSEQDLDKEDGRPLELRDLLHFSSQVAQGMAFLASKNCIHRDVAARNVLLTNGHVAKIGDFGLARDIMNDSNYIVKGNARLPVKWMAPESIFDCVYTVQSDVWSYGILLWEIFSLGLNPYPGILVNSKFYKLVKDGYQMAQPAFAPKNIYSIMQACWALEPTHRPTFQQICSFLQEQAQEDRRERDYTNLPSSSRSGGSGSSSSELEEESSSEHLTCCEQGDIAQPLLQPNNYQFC

// query So what's the measured IC50 for this one? COc1cc2nccc(Oc3ccc(NC(=O)c4nn(C5CCNC5)cc4OCC(F)(F)F)nc3)c2cc1OC (stereo not drawn)
// result 500 to 1000 nM

// query Consider next the compound CCCn1cc(OCCC(O)CO)c(C(=O)Nc2ccc(Oc3ccnc4cc(OC)c(OC)cc34)cn2)n1 (stereo not drawn) in the same way.
// result ≥ 1000 nM

// query Consider next the compound `COc1cc2nccc(Oc3ccc(NC(=O)c4nn(C5CC5)cc4NCCC(F)(F)F)nn3)c2cc1OC` in the same way.
// result ≥ 1000 nM

====

biological target: Axl (Homo sapiens); assay: Cellular Axl inhibition ELISA (p-Axl, Gas6-induced) using H1299 cells; format: cell-based; parameters: especially H1299 cell endogenously expresses Axl; endogenous in cells; host or cells: H1299; settings: read-out: Cellular Axl activity by H1299 Elisa (IC50)
pIC50: −log10 of the molar value.
A collection of molecules and their measured pIC50

INSERT INTO measurements (molecule, target_system, observed_result) VALUES
  ('COc1cc2nccc(Oc3ccc(NC(=O)c4nn(CC5COC5)cc4OCC(F)(F)F)nc3)c2cc1OC [Compound 92]', 'Axl (Homo sapiens)', '> 6.30');

// query So what's the measured pIC50 for this one? COc1cc2nccc(Oc3ccc(NC(=O)c4nn(CCO)cc4OCC(F)(F)F)cc3C)c2cc1OC [Compound 56]
// result ≤ 6.00

// query Consider next the molecule CCCn1cc(OCC(F)(F)F)c(C(=O)Nc2ccc(Oc3ccnc4cc(OC)c(OC)cc34)c(F)c2)n1 [Compound 25] in the same way.
// result > 6.30

// query Consider next the molecule COc1cc2nccc(Oc3ccc(NC(=O)c4nn(CC(C)C)cc4OCC(F)(F)F)cc3C)c2cc1OC [Compound 58] in the same way.
// result > 6.30

====

target: Axl (Homo sapiens, UniProt P30530); assay: Cellular Axl inhibition ELISA (p-Axl, Gas6-induced) using H1299 cells; assay type: cell-based; parameters: especially H1299 cell endogenously expresses Axl; endogenous in cells; host or cells: H1299; settings: read-out: Cellular Axl activity by H1299 Elisa (IC50)
Sequence (P30530 26-894): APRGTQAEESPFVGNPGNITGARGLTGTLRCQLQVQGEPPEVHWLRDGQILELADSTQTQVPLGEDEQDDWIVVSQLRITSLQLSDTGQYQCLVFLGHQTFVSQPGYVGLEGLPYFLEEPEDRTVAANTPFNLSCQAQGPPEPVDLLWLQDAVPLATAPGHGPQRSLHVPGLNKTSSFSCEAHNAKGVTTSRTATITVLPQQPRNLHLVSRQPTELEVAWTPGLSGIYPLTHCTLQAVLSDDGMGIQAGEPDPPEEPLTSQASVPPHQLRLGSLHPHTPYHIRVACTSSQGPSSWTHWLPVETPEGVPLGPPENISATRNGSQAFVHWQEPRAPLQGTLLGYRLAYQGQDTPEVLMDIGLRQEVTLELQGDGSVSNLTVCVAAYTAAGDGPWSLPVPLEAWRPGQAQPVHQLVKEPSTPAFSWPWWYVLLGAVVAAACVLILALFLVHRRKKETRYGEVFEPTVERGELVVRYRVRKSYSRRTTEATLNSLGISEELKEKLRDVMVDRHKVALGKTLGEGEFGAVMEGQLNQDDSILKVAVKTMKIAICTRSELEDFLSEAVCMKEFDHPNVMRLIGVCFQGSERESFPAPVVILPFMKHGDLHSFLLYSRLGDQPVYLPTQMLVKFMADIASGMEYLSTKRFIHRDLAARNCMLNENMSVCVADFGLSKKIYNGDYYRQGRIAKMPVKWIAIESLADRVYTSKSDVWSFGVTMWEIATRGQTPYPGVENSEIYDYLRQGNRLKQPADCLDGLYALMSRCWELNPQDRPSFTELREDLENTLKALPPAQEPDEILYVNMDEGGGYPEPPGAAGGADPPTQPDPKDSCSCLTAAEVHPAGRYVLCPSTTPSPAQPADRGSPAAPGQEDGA
pIC50: −log10 of the molar value.
A collection of molecules and their measured pIC50

See these solved cases before continuing.
INSERT INTO measurements (molecule, measurement_label, observed_result) VALUES
  ('COc1cc2nccc(Oc3ccc(NC(=O)c4nn(CC5CCC5)cc4OCC(F)(F)F)nc3)c2cc1OC', 'pIC50', '> 6.30'),
  ('CCn1cc(OCC(F)(F)F)c(C(=O)Nc2ccc(Oc3ccnc4cc(OC)c(OC)cc34)cn2)n1', 'pIC50', '> 6.30'),
  ('CCn1cc(OCC2CCC2)c(C(=O)Nc2ccc(Oc3ccnc4cc(OC)c(OC)cc34)cn2)n1', 'pIC50', '> 6.30'),
  ('COc1cc2nccc(Oc3ccc(NC(=O)c4nn(C5CC5)cc4OCCF)nn3)c2cc1OC', 'pIC50', '> 6.30'),
  ('COc1cc2nccc(Oc3ccc(NC(=O)c4nn(CCN(C)C)cc4OCC(F)(F)F)nc3)c2cc1OC', 'pIC50', '> 6.30');

// query So what's the measured pIC50 for this one? `COc1cc2nccc(Oc3ccc(NC(=O)c4nn(C5CCOCC5)cc4OCC(F)(F)F)nc3)c2cc1OC`
// result > 6.30

// query Consider next the molecule `CNCCn1cc(OCC(F)(F)F)c(C(=O)Nc2ccc(Oc3ccnc4cc(OC)c(OC)cc34)c(C)c2)n1` in the same way.
// result ≤ 6.00

// query Consider next the molecule `COc1cc2nccc(Oc3ccc(NC(=O)c4nn(C5CC5)cc4OCC4COC4)nn3)c2cc1OC` in the same way.
// result > 6.30

// query Consider next the molecule COc1cc2nccc(Oc3ccc(NC(=O)c4nn(CC(C)O)cc4OCC(F)(F)F)cn3)c2cc1OC (stereo not drawn) in the same way.
// result ≤ 6.00

// query Consider next the molecule `COc1cc2nccc(Oc3ccc(NC(=O)c4sc(C5CC5)cc4OCC(F)(F)F)nc3)c2cc1OC` in the same way.
// result > 6.30

// query Consider next the molecule `CNCCn1cc(OCC(F)(F)F)c(C(=O)Nc2ccc(Oc3ccnc4cc(OC)c(OC)cc34)nc2)n1` in the same way.
// result ≤ 6.00
